- Test system: cRBC
- Type: cell-based, canine
Here the recorded cRBC (50 μM) is given for each entry.
Quick one: just the number, no unit, thanks!

Solved entries (count: 2):
Substance	cRBC (50 μM)
5 (KWCFYVCYRGICYRRCRD; Artificial Antimicrobial peptide) [compound 5]	3.1
112 (KWCFRVCYRGICYRRCKD; Artificial Antimicrobial peptide) [compound 112]	61.0

// assay cRBC, entry 29 (PKWCFRVCYRGICYRRCRD; Artificial Antimicrobial peptide) [compound 29] , cRBC (50 μM) value = 68.2

// assay cRBC, entry 102 (KWCFRACYRGICYRRCRD; Artificial Antimicrobial peptide) [compound 102] , cRBC (50 μM) value = 23.9
